ASSAY SYSTEM: mu opioid receptor (MOR) (Homo sapiens, UniProt P35372)
Sequence (P35372 whole entry): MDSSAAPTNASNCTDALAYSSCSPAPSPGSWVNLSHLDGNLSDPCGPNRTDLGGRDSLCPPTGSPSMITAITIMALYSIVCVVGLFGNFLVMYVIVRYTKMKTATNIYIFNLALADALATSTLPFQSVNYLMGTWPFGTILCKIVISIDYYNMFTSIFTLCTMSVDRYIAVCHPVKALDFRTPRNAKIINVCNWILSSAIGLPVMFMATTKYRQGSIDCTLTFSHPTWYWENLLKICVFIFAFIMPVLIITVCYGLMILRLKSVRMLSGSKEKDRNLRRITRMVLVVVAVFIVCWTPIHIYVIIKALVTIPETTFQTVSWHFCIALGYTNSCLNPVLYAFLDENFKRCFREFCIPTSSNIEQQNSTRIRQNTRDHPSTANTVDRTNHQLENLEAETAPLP
PROTOCOL TEXT: Displacement of [3H]-DAMGO from recombinant human MOR stably expressed in HEK cell membranes at 10 uM measured after 90 mins by microbeta scintillation counting method relative to control
ASSAY CONDITIONS: HEK cell membranes stably expressing recombinant human MOR, probe [3H]-DAMGO
RECORDED METRIC: inhibition at […], 10 µM

Task: Need inhibition at […], 10 µM, item CCCN[C@H]1CCc2nc(N)sc2C1 [PRAMIPEXOLE]
Output: < 50%

Task: Need inhibition at […], 10 µM, item CCCN(CC[C@]1(O)C[C@H](NC(=O)c2ccc3ccccc3c2)C1)[C@H]1CCc2nc(N)sc2C1
Output: > 50%

---

ASSAY SYSTEM: Delta-type opioid receptor (Homo sapiens, UniProt P41143)
Sequence (P41143 whole entry): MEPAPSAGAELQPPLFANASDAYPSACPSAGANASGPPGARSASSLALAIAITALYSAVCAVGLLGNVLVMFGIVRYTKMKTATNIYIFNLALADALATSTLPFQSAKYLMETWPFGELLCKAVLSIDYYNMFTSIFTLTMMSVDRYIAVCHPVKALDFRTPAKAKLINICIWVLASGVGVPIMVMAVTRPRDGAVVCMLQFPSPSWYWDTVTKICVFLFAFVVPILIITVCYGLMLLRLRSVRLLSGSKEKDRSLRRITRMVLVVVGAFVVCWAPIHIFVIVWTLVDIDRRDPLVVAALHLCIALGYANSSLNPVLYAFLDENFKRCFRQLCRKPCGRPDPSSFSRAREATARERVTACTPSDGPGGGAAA
RECORDED METRIC: Ki

Task: Need Ki, item CCCN[C@H]1CCc2nc(N)sc2C1 [PRAMIPEXOLE]
Output: > 10 µM

---

ASSAY SYSTEM: Sigma non-opioid intracellular receptor 1 (Homo sapiens)
Sequence (Q99720 whole entry): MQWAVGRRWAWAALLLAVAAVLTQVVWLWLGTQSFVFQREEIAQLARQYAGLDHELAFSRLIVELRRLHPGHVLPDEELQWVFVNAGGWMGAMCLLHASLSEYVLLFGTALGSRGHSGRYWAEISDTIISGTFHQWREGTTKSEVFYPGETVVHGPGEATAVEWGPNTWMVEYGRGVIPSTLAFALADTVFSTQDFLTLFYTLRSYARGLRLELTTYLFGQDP
PROTOCOL TEXT: Displacement of [3H]-pentazocine from sigma1 receptor (unknown origin) after 90 mins by microbeta scintillation counting method
RECORDED METRIC: pKi
pKi is a log-scale quantity: -log10 of the concentration expressed in molar.

Task: Need pKi, item CCCN[C@H]1CCc2nc(N)sc2C1 [PRAMIPEXOLE]
Output: 5.35

---

ASSAY SYSTEM: dopamine D1 receptor (Homo sapiens, UniProt P21728)
Sequence (P21728 whole entry): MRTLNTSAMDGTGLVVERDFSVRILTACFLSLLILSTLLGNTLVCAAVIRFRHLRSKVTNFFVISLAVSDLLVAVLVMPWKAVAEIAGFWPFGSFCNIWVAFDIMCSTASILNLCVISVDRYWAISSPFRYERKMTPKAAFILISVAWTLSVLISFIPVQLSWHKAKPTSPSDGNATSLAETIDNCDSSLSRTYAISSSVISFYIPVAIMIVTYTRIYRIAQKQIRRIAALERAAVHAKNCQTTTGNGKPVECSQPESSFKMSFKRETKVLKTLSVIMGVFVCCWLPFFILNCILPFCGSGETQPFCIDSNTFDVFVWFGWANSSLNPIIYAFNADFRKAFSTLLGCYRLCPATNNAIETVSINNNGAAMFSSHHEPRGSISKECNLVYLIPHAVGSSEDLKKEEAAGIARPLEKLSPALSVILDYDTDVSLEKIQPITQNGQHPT
PROTOCOL TEXT: in vitro
ASSAY CONDITIONS: probe [3H]-SCH23390
RECORDED METRIC: inhibition at […], 10 µM

Task: Could you share what inhibition at […], 10 µM was measured for CCCN[C@H]1CCc2nc(N)sc2C1 [PRAMIPEXOLE] , tested on dopamine D1 receptor (Homo sapiens, UniProt P21728)?
Output: > 50%

Task: Could you share what inhibition at […], 10 µM was measured for CCCN(CC[C@]1(O)C[C@H](NC(=O)c2ccc3ccccc3c2)C1)[C@H]1CCc2nc(N)sc2C1 , tested on dopamine D1 receptor (Homo sapiens, UniProt P21728)?
Output: < 50%

---

RECORDED METRIC: Ki

Task: Could you share what Ki was measured for CCCN[C@H]1CCc2nc(N)sc2C1 [PRAMIPEXOLE] , tested on 5-hydroxytryptamine receptor 1D (Homo sapiens, UniProt P28221)?
Output: > 10 µM

---

Would you kindly list inhibition at […], 10 µM for each of these compounds?
ASSAY SYSTEM: 5HT3 receptor (5-hydroxytryptamine receptor 3A) (Homo sapiens)
Sequence (P46098 whole entry): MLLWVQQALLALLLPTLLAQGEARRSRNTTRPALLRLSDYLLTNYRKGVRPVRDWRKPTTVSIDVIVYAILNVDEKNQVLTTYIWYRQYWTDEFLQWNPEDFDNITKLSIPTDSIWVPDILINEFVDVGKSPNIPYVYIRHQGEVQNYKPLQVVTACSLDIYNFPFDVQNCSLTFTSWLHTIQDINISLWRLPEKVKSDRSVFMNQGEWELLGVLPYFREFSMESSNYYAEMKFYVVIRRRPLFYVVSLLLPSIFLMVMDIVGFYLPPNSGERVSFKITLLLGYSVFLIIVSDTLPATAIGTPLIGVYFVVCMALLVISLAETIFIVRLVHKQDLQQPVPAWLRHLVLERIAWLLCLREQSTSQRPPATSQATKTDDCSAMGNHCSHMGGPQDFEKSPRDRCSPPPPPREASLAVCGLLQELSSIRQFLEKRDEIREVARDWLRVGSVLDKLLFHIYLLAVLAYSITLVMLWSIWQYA
PROTOCOL TEXT: Displacement of [3H]GR65630 from recombinant human 5HT3 receptor transiently expressed in HEKT cell membranes at 10 uM measured after 90 mins by microbeta scintillation counting method relative to control
ASSAY CONDITIONS: probe [3H]GR65630

Task: Need inhibition at […], 10 µM, item CCCN[C@H]1CCc2nc(N)sc2C1 [PRAMIPEXOLE]
Output: > 50%

Task: Need inhibition at […], 10 µM, item CCCN(CC[C@]1(O)C[C@H](NC(=O)c2ccc3ccccc3c2)C1)[C@H]1CCc2nc(N)sc2C1
Output: < 50%

---

ASSAY SYSTEM: UniProt P08173
Sequence (P08173 whole entry): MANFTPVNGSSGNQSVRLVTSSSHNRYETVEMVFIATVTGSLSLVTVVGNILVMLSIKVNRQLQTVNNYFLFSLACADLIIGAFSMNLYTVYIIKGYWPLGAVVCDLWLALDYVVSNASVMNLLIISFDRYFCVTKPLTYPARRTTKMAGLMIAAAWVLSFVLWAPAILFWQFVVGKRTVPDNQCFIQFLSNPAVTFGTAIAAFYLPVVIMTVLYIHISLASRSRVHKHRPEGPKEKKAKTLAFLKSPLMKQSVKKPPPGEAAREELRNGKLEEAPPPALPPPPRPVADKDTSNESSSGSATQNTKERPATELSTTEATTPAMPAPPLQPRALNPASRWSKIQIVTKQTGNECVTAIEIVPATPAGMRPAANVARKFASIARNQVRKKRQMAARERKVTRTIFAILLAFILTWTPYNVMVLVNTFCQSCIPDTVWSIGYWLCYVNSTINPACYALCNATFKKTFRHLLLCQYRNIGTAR
PROTOCOL TEXT: Displacement of [3H]-QNB/[3H]-NMS from human muscarinic M4 receptor expressed in stable CHO cell membranes at 10 uM after 90 mins by microbeta scintillation counting method relative to control
ASSAY CONDITIONS: probe [3H]-QNB/[3H]-NMS
Would you kindly list inhibition at […], 10 µM for each of these molecules?

Task: Need inhibition at […], 10 µM, item CCCN[C@H]1CCc2nc(N)sc2C1 [PRAMIPEXOLE]
Output: < 50%

Task: Need inhibition at […], 10 µM, item CCCN(CC[C@]1(O)C[C@H](NC(=O)c2ccc3ccccc3c2)C1)[C@H]1CCc2nc(N)sc2C1
Output: > 50%

---

Would you kindly list inhibition at […], 10 µM for each of these compounds?
ASSAY SYSTEM: UniProtKB P35348
Sequence (P35348 whole entry): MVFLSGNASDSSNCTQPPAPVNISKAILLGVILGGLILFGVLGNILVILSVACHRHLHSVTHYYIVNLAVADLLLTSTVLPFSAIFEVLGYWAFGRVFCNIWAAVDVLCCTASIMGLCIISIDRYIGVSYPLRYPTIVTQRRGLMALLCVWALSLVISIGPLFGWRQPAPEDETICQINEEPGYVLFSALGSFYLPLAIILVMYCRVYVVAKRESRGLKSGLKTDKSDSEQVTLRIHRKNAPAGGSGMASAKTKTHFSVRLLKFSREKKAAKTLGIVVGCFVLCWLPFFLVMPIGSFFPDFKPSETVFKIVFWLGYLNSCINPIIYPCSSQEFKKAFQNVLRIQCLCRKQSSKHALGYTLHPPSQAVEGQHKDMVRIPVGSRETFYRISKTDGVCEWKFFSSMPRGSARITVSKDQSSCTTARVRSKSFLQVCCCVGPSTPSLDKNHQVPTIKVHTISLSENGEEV
PROTOCOL TEXT: Displacement of [3H]-prazosin from recombinant human alpha1A adrenergic receptor at 10 uM measured after 90 mins by microbeta scintillation counting method relative to control
ASSAY CONDITIONS: probe [3H]-prazosin

Task: Could you share what inhibition at […], 10 µM was measured for CCCN(CC[C@]1(O)C[C@H](NC(=O)c2ccc3ccccc3c2)C1)[C@H]1CCc2nc(N)sc2C1 , tested on UniProtKB P35348?
Output: < 50%

Task: Could you share what inhibition at […], 10 µM was measured for CCCN[C@H]1CCc2nc(N)sc2C1 [PRAMIPEXOLE] , tested on UniProtKB P35348?
Output: > 50%

---

ASSAY SYSTEM: D(2) dopamine receptor (Homo sapiens)
Sequence (P14416 whole entry): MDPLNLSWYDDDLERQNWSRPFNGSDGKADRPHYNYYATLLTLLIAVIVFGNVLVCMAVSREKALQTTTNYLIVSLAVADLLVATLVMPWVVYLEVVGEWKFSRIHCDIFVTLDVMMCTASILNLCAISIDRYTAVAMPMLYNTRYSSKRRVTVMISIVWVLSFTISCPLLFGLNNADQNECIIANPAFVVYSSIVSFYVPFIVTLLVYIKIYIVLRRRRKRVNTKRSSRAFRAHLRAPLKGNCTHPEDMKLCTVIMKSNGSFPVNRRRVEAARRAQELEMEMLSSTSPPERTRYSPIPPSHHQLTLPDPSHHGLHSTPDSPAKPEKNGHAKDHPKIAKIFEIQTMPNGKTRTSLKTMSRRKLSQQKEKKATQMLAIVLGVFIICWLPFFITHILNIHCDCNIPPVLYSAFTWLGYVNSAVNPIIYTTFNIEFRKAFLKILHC
PROTOCOL TEXT: Agonist activity at human D2R expressed in CHOK1 cells assessed as induction of beta-arrestin recruitment measured after 90 mins by beta-galactosidase based PathHunter assay
Type: cell-based
ASSAY CONDITIONS: read-out: EC50
Would you kindly list pEC50 for each of these compounds?
pEC50 is a log-scale quantity: -log10 of the concentration expressed in molar.

Task: Could you share what pEC50 was measured for COc1ccc2[nH]c(C(=O)N3CCN(CCOc4cccnc4)CC3)cc2c1 , tested on D(2) dopamine receptor (Homo sapiens)?
Output: 5.59

Task: Could you share what pEC50 was measured for O=C(c1nc2ccccc2[nH]1)N1CCN(CCOc2cccnc2)CC1 , tested on D(2) dopamine receptor (Homo sapiens)?
Output: 5.62

Task: Could you share what pEC50 was measured for COc1cccc(OCCN2CCN(C(=O)c3cc4cccnc4[nH]3)CC2)c1 , tested on D(2) dopamine receptor (Homo sapiens)?
Output: 6.89

Task: Could you share what pEC50 was measured for O=C(c1cc2ccccc2[nH]1)N1CCN(CCOc2cccnc2)CC1 , tested on D(2) dopamine receptor (Homo sapiens)?
Output: 6.24

Task: Could you share what pEC50 was measured for COc1ccc(OCCN2CCN(C(=O)c3cc4cc(OC)ccc4[nH]3)CC2)cc1 , tested on D(2) dopamine receptor (Homo sapiens)?
Output: 5.11

Task: Could you share what pEC50 was measured for COc1ccc(C(=O)N2CCN(CCOc3ccccc3)CC2)cc1 , tested on D(2) dopamine receptor (Homo sapiens)?
Output: 5.64

Task: Could you share what pEC50 was measured for COc1ccc(OCCN2CCN(C(=O)c3ccc(OC)cc3)C(C)C2)cc1 (configuration not stated) , tested on D(2) dopamine receptor (Homo sapiens)?
Output: 5.38

Task: Could you share what pEC50 was measured for COc1ccc(OCCN2CCN(C(=O)c3cc4c(OC)cccc4[nH]3)CC2)cc1 , tested on D(2) dopamine receptor (Homo sapiens)?
Output: 5.28

Task: Could you share what pEC50 was measured for Cc1ccc2[nH]c(C(=O)N3CCN(CCOc4cccnc4)CC3)cc2c1 , tested on D(2) dopamine receptor (Homo sapiens)?
Output: 5.89

Task: Could you share what pEC50 was measured for O=C(c1cc2c(Cl)cccc2[nH]1)N1CCN(CCOc2cccnc2)CC1 , tested on D(2) dopamine receptor (Homo sapiens)?
Output: 6.66

Task: Could you share what pEC50 was measured for O=C(c1ccc[nH]1)N1CCN(CCOc2cccnc2)CC1 , tested on D(2) dopamine receptor (Homo sapiens)?
Output: 5.21

Task: Could you share what pEC50 was measured for COc1ccc(OCCN2CCN(C(=O)c3[nH]c4ccccc4c3C)CC2)cc1 , tested on D(2) dopamine receptor (Homo sapiens)?
Output: 5.36

Task: Could you share what pEC50 was measured for O=C(c1cc2ccccc2o1)N1CCN(CCOc2cccnc2)CC1 , tested on D(2) dopamine receptor (Homo sapiens)?
Output: 5.77

Task: Could you share what pEC50 was measured for Cn1c(C(=O)N2CCN(CCOc3cccnc3)CC2)cc2ccccc21 , tested on D(2) dopamine receptor (Homo sapiens)?
Output: 5.21

Task: Could you share what pEC50 was measured for COc1ccc(OCCN2CCN(C(=O)c3cc4cnccc4[nH]3)CC2)cc1 , tested on D(2) dopamine receptor (Homo sapiens)?
Output: 5.26

Task: Could you share what pEC50 was measured for COc1cccc(OCCN2CCN(C(=O)c3cc4cnccc4[nH]3)CC2)c1 , tested on D(2) dopamine receptor (Homo sapiens)?
Output: 6.08

Task: Could you share what pEC50 was measured for O=C(c1cc2cc(Cl)ccc2[nH]1)N1CCN(CCOc2cccnc2)CC1 , tested on D(2) dopamine receptor (Homo sapiens)?
Output: 5.85

Task: Could you share what pEC50 was measured for O=C(c1cc2ccccc2[nH]1)N1CCN(CCOc2ccccc2)CC1 , tested on D(2) dopamine receptor (Homo sapiens)?
Output: 5.74

Task: Could you share what pEC50 was measured for O=C(c1cc2ncccc2[nH]1)N1CCN(CCOc2cccnc2)CC1 , tested on D(2) dopamine receptor (Homo sapiens)?
Output: 5.52
